# method notes: Viability qHTS for spleen associated tyrosine kinase inhibitor (SYKi) drug resistant MV4-11 cells (AID 1963824); further: nearly all actives have a fitted effect of over 35% in size
# condition info: SYKi-resistant MV4-11 viability, CellTiter-Glo, 72 h; series mostly up to 45 µM
Inconclusive results are not listed. Active and inactive are the calls of the source. The call rests on the fitted dose curve; in most records, active means well fitted cell-killing curve with a large enough effect; inconclusive means small, poorly fitted or top-dose-only effect, or effect the other way; inactive means no such curve, though single readings can be large or run the other way.
Outcome field: choose from True = active, False = inactive

COC(=O)/C=C/C(=O)N(O)CCCCNCc1ccc(COC(=O)Nc2cccc3ccccc23)cc1 = True
COC(=O)C[C@H]1C(C)(C)[C@H](OC(C)=O)C2CC3=C4CC(=O)O[C@@H](c5ccoc5)[C@]4(C)CCC3[C@@]1(C)C2=O (stereo partly specified) = True
N[C@@]1(C(=O)O)CC[C@H]2[C@H](C(=O)O)[C@H]21 = False

Query: # lookup: test call for CC(C)(C)n1nc(-c2cccc3ccccc23)c2c(N)ncnc21
Reply: True

###

# method notes: Viability qHTS for spleen associated tyrosine kinase inhibitor (SYKi) drug resistant MV4-11 cells (AID 1963824); further: nearly all actives have a fitted effect of over 35% in size
# condition info: SYKi-resistant MV4-11 viability, CellTiter-Glo, 72 h; series mostly up to 45 µM
Inconclusive results are not listed. Calls of active or inactive are those of the source. Calls follow the shape of the dose curve; as a rule, active = well fitted cell-killing curve with a large enough effect; inconclusive = small, poorly fitted or top-dose-only effect, or effect the other way; inactive = no such curve, though single readings can be large or run the other way.
measured metric: viability, % of control

NC[C@H]1O[C@H](O[C@H]2[C@H](O[C@@H]3O[C@H](CO)[C@@H](O)[C@H]3O)C(O)[C@H](N)C[C@@H]2N)[C@H](N)[C@@H](O)[C@@H]1O (some centres undefined) = 95.3% [at 9.25 µM] (inactive)

Query: Reported viability, % of control for CC(CCC1(O)OC2CC3C4CCC5CC(O[C@@H]6O[C@H](CO)[C@@H](O)[C@H](O)[C@H]6O[C@@H]6OC[C@@H](O)[C@H](O)[C@H]6O)C(O)CC5(C)C4CCC3(C)C2C1C)CO[C@@H]1O[C@H](CO)[C@@H](O)[C@H](O)[C@H]1O (some centres undefined) : what is it?
Reply: 86.8% [at 9.25 µM] (inactive)

Query: Name the recorded viability, % of control for N=C(N)N1CCc2ccccc2C1 .
Reply: 96.6% [at 4.97 µM] (inactive)

Query: I am curious: what viability, % of control value has been reported for CC(=O)O[C@@H]1[C@H](O[C@@H]2O[C@H](CO)[C@@H](O)[C@H](O)[C@H]2O)[C@@H](O[C@@H]2O[C@@H](C)[C@H](O)[C@@H](O[C@@H]3O[C@H](CO)[C@@H](O)[C@H](O)[C@H]3O)[C@H]2O)[C@H](OC(=O)C23CCC4(C)C(=CCC5C6(C)CC(O)C(O[C@@H]7O[C@H](C(=O)O)[C@@H](O)[C@H](O)[C@H]7O)C(C)(C(=O)O)C6CCC54C)C2CC(C)(C)CC3O)O[C@@H]1C (some centres undefined) ?
Reply: 102% [at 9.25 µM] (inactive)

###

# method notes: Viability qHTS for spleen associated tyrosine kinase inhibitor (SYKi) drug resistant MV4-11 cells (AID 1963824); further: nearly all actives have a fitted effect of over 35% in size
# condition info: SYKi-resistant MV4-11 viability, CellTiter-Glo, 72 h; series mostly up to 45 µM
Results filed as inconclusive are left out. Active and inactive are the calls of the source. Calls come from the whole dose curve; as a rule, active = well fitted cell-killing curve with a large enough effect; inconclusive = small, poorly fitted or top-dose-only effect, or effect the other way; inactive = no such curve, though single readings can be large or run the other way.
Hello, when you answer, please use one of the following outcomes: active, inactive

C[N+]1(C)[C@@H]2CC[C@H]1CC(OC(=O)C(O)c1ccccc1)C2 (stereo partly drawn) = inactive

Query: GET /call?item= CC(=O)Nc1ccccc1 returns the recorded outcome of this test.
Reply: inactive

Query: What outcome does the record of this test show for C[C@@H]1C[C@H](N)C[C@H](c2ccncc2NC(=O)c2ccc(F)c(-c3c(F)cccc3F)n2)C1 ?
Reply: active

Query: What was the test verdict on COC1=C(OC)C(=O)C(C/C=C(\C)CC/C=C(\C)CC/C=C(\C)CC/C=C(/C)CC/C=C(\C)CC/C=C(\C)CC/C=C(\C)CC/C=C(\C)CC/C=C(\C)CCC=C(C)C)=C(C)C1=O ?
Reply: inactive

Query: Test call, this compound: CCN1CCN(C(=O)N[C@@H](C(=O)N[C@@H]2C(=O)N3[C@@H]2SC(C)(C)[C@H]3C(=O)O)c2ccccc2)C(=O)C1=O
Reply: inactive

Query: Kindly provide the recorded test outcome for the following compound: Cc1cc(OCCCS(C)(=O)=O)cc(C)c1-c1cccc(COc2ccc(C3=CC(=O)NS3=O)cc2)c1 (stereo not drawn)
Reply: active

Query: // return assay outcome for CCc1cc2c(cc1CC)CC(NCC(O)c1ccc(O)c3[nH]c(=O)ccc13)C2 (stereo not drawn)
Reply: active

Query: What did the test return for Cc1cc(=O)oc2cc(O)ccc12 ?
Reply: inactive

Query: GET /call?item= O=Cc1ccc(O)c(O)c1O returns the recorded outcome of this test.
Reply: inactive

Query: Fill in: this test's call for CCCCCNC(=O)N1CCC(CN(Cc2ccc(Cl)cc2)Cc2ccc([N+](=O)[O-])s2)C1 (stereo not drawn) is ___
Reply: active

Query: Please let me know the test result on file for O=S(=O)(c1cccc2c(Cl)cccc12)N1CCCNCC1 .
Reply: active
